Experiment: Clearance in cynomolgus monkey at 1 mg/kg, iv
Conditions: in vivo
value.type: clearance (mL/min/kg)
Kindly answer with a numeric value in mL/min/kg, unit omitted.

clearance in this record for Cc1ccc2c(N3CCN(CCc4cccc(N5CCNC5=O)c4)CC3)cccc2n1.Cl.Cl : 25

----------
Listed here: items and their measured pKi.
Target: 5-hydroxytryptamine receptor 2C (Homo sapiens)
Sequence (P28335 whole entry): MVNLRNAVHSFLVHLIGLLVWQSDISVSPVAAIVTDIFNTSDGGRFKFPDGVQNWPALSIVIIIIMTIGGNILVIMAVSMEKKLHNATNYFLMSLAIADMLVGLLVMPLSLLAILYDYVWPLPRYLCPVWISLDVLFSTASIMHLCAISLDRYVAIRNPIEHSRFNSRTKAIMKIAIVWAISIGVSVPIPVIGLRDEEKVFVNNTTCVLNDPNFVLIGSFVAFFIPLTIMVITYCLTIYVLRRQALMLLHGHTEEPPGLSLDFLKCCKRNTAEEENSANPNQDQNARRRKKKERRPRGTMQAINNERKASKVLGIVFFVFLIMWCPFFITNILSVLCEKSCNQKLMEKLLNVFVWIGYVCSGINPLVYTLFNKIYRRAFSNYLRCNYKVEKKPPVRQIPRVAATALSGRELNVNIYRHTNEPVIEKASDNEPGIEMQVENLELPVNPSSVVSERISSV
Assay: Binding affinity to human recombinant 5-HT2C receptor by radioligand displacement assay
// field semantics: pKi = negative decimal log of concentration (mol/L)

Record excerpt, results attached:
>>> print(df.to_string())
                                 cpd_smiles                           target_of_assay  value_type  endpoint_value
0  Cc1ccc2c(N3CCN(CCc4cccc(N5CCNC5=O)c4)CC3)cccc2n1  5-hydroxytryptamine receptor 2C (Homo sapiens)         pKi            5.80
1  COC(=O)Nc1cccc(CCN2CCN(c3cccc4nc(C)ccc34)CC2)c1  5-hydroxytryptamine receptor 2C (Homo sapiens)         pKi            6.10
2  Cc1ccc2c(N3CCN(CCc4cccc(NS(C)(=O)=O)c4)CC3)cccc2n1  5-hydroxytryptamine receptor 2C (Homo sapiens)         pKi            5.50

Entry Cc1ccc2c(N3CCN(CCc4cccc(NC(=O)c5ccccc5)c4)CC3)cccc2n1 ; pKi = 6.10

So, Cc1ccc2c(N3CCN(CCc4cccc(-n5cccn5)c4)CC3)cccc2n1 ? Its pKi was 5.70

// field: pKi; key: CCNC(=O)Nc1cccc(CCN2CCN(c3cccc4nc(C)ccc34)CC2)c1 ; value = 6.10

Memo: CC(=O)Nc1cccc(CCN2CCN(c3cccc4nc(C)ccc34)CC2)c1 , reported pKi: 6.00
